FYI, the data here is from patent US20230134571A1.

# System name: HIV Env, isolate 1054_07_TC4_1499 (HIV)
# Test details: cell-based or functional assay
Measured quantity: IC80 (µg/ml) with constrains

Binder	Experimental value
PGDM1400 (antibody, V domains shown) VH: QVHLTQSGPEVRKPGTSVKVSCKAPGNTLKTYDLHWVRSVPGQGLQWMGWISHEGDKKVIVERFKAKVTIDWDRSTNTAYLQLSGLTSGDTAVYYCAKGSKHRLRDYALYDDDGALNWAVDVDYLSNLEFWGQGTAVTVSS VL: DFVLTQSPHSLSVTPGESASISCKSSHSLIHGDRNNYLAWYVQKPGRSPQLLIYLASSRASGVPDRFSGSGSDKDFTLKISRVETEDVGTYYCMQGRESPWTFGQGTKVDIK	> 100 µg/mL
ePGDM5 (antibody, V domains shown) VH: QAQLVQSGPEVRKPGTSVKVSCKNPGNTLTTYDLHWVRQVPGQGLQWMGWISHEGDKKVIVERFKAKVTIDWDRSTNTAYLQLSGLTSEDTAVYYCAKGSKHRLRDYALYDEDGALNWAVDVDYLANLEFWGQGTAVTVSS VL: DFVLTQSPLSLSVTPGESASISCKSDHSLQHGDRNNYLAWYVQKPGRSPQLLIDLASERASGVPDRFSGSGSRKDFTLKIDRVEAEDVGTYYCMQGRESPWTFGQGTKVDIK	> 100 µg/mL
ePGDM13 (antibody, V domains shown) VH: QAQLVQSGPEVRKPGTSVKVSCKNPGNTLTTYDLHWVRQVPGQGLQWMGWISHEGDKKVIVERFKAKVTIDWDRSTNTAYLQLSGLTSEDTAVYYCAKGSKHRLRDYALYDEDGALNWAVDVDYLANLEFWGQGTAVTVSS VL: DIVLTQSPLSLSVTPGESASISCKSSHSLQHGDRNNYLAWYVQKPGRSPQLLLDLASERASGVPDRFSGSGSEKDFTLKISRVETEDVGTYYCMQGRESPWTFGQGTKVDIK	> 100 µg/mL
ePGDM9 (antibody, V domains shown) VH: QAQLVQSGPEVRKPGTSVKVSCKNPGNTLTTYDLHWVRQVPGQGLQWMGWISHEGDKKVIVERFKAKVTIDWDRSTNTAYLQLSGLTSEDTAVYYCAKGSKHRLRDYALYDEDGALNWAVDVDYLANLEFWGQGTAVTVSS VL: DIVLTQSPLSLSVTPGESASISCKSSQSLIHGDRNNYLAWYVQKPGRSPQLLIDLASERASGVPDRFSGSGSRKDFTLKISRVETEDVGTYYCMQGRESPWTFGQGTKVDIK	> 100 µg/mL
